Assay: MTT cell proliferation/viability assay
Format: cell-based
Settings: human, CEM T cells, 1-100 μM
Parameter Measured: EC50 at 24 h

>>> print(df.to_string())
                                   compound    result
0  O=C(O)COc1ccc(/C=C/C(=O)c2ccc3c(c2)OCO3)cc1  > 100 µM
1         Nc1ccc2oc(-c3cc(F)c(F)cc3Cl)nc2c1  > 100 µM
2  O=C1OCCC1Sc1nnc(-c2sc3ccccc3c2Cl)o1 (stereo not drawn)  > 100 µM

---

Tested on: HIV-1-LUC-G (VSVG pseudotyped HIV-1 expressing luciferase)
Assay: microbe, parasite or virus in culture
Type: cell-based
Settings: Human immunodeficiency virus 1, T-cell, read-out: One round HIV-1 infection IC50
IC50 values for the molecules below.
Parameter Measured: IC50 (nM)

>>> df
                                   molecule  parameter_measured  result
0  O=C1OCCC1Sc1nnc(-c2sc3ccccc3c2Cl)o1 (stereo not drawn)                IC50    3460
1  O=C(O)COc1ccc(/C=C/C(=O)c2ccc3c(c2)OCO3)cc1                IC50    2970
2         Nc1ccc2oc(-c3cc(F)c(F)cc3Cl)nc2c1                IC50     200
